# Tgt: T1, rat IL-25 expressed with a C-terminal myc-myc-hexahistidine tag (rat)
# T1 construct: also called Rat IL-25-MMH
# T1 chain: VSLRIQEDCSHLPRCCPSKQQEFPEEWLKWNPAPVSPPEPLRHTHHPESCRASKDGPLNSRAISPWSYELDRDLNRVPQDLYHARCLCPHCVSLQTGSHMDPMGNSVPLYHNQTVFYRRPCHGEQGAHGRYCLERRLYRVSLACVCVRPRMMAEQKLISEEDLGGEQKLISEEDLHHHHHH
# Assay Method Text: SPR Biacore, antibody captured, 25C;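 also: purified anti-IL-25 antibodies were tested by real-time surface plasmon resonance on a Biacore 4000, with rate constants obtained from sensorgram fits to a 1:1 binding model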
Documented t½ across a set of binders

Binder	Measurement Unit	t½
H4H10863P (antibody, human IgG4, V domains shown, H4H prefix = human IgG4 Fc) VH: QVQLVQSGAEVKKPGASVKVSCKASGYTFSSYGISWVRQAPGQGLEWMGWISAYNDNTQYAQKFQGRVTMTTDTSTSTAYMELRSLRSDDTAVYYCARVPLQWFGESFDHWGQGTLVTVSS VL: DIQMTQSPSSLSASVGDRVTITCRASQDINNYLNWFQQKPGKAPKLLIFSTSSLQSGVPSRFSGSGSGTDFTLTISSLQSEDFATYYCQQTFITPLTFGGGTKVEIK	min	70
H4H10907P (antibody, human IgG4, V domains shown, H4H prefix = human IgG4 Fc) VH: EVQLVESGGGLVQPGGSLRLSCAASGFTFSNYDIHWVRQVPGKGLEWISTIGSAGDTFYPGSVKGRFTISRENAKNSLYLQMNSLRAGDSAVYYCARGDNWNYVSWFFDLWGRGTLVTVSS VL: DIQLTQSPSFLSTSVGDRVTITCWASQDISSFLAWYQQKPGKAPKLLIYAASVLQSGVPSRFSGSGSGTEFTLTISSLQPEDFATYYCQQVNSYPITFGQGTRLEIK	min	0.8
H4H10897P (antibody, human IgG4, V domains shown, H4H prefix = human IgG4 Fc) VH: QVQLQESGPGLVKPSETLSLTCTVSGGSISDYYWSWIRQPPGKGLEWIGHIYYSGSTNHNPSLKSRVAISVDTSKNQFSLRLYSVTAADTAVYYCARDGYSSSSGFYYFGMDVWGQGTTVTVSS VL: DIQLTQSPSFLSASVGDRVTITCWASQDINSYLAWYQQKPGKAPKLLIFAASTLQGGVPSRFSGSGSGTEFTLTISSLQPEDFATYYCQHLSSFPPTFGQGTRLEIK	min	14

Data credit: patent US20160083466A1
